Listed binders paired with reported EC50
test system: T1, human LILRB1 expressed on cells (human, UniProt Q8NHL6 24-650)
T1 construct: In 293T cells it was expressed from pCMV3-LILRB1-GFP; also called CHO-LILRB1; Jurkat-LILRB1
T1 sequence (Q8NHL6 other isoform, or with tags, fused parts or gaps limits assumed): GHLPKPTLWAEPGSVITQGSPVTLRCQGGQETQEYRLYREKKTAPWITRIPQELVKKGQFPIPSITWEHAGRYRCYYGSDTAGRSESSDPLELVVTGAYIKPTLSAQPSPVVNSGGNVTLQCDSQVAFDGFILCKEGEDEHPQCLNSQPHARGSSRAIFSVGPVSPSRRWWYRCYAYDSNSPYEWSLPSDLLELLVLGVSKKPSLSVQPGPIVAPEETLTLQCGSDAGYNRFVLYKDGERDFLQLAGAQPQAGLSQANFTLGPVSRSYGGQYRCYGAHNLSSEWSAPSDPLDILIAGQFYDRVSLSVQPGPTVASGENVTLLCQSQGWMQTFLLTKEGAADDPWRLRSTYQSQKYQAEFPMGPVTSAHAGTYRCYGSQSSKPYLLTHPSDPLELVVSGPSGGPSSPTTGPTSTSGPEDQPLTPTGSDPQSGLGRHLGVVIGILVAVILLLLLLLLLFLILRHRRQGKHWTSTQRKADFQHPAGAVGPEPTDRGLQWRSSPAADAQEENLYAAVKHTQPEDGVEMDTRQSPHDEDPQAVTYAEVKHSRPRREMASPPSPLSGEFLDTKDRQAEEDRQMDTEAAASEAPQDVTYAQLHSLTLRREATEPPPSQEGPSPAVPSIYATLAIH
protocol notes: flow cytometry, CHO-LILRB1 cells

# example entries with known answers
[
  {
    "binder": "D2M002-002 (antibody, V domains shown, Hit from immunised mice; also called clone #2; anti-LILRB1/2 clone #2) VH: EVQLQQSGPELVKPGASVKMSCKASGYTFTRYVMHWVKQKPGQGLEWIGYINPNNDGTKYNEKFKGKVTLTSDKSSSTAYMELSSLTSEDSAVYYCARGDLEILPYYDHARNAMDYWGQGTSVTVSS VL: DVQMIQSPASLSASVGETVTITCRASENIYSYLAWYQQKQGKSPQLLVYNAKTLAEGVPSRFSGSGSGTQFSLKINSLQPEDFGSYYCQHFWSTPPTFGGGTKLEIK",
    "EC50": "0.439 µg/mL"
  },
  {
    "binder": "D2M002-004 (antibody, human IgG1, V domains shown, Hit; also called clone #4) VH: EVQLQQSGAELVRPGALVKLSCKASGFNIKDYYMHWVKQRPEQGLEWIGWIDPESGNTIYDPKFQGKASMTADTSSNTAYLQLSSLTSEDTAVYYCARLDGSSYYAMDYWGQGTSVTVSS VL: DILLTQSPASLAVSLGQRATISCRASESVDSYGNSFMHWYQQKPGQPPKLLIYLASNLESGVPARFSGSGSRTDFTLTIDPVEADDAATYYCQQNNEDPLTFGAGTKLELK",
    "EC50": "0.004 µg/mL"
  }
]

// switching to the query binder
Fill in the blank: the reported EC50 of #22 (antibody, human IgG1, V domains shown, also called D2M002-022) VH: QVQLQQSGAELMKPGASVKISCKATGYTLSSYWIEWVKQRPGHGLEWIGEILPGSGSTNYNEKFKGKATFTADTSSNTAYMQLSSLTSEDSAVYYCARSGAGGYDSGAFAYWGQGTLVTVSA VL: DIVLTQSPASLAVSLGQRATISCRASESVDTYGNSFMHWYQQKPGQPPKLLIYRTSNLESGIPARFSGSGSRTDFTLTINPVEADDVATYYCQQSNEDPWTFGGGTKLEIK is ____.
1.99 µg/mL
